Every entry's value here was drawn from patent US7678815B2.

Parameter Ki, tested on human mGlu 5a receptor (Homo sapiens), listed per item.
Sequence (P41594 21-1180 isoform P41594-2 limits assumed): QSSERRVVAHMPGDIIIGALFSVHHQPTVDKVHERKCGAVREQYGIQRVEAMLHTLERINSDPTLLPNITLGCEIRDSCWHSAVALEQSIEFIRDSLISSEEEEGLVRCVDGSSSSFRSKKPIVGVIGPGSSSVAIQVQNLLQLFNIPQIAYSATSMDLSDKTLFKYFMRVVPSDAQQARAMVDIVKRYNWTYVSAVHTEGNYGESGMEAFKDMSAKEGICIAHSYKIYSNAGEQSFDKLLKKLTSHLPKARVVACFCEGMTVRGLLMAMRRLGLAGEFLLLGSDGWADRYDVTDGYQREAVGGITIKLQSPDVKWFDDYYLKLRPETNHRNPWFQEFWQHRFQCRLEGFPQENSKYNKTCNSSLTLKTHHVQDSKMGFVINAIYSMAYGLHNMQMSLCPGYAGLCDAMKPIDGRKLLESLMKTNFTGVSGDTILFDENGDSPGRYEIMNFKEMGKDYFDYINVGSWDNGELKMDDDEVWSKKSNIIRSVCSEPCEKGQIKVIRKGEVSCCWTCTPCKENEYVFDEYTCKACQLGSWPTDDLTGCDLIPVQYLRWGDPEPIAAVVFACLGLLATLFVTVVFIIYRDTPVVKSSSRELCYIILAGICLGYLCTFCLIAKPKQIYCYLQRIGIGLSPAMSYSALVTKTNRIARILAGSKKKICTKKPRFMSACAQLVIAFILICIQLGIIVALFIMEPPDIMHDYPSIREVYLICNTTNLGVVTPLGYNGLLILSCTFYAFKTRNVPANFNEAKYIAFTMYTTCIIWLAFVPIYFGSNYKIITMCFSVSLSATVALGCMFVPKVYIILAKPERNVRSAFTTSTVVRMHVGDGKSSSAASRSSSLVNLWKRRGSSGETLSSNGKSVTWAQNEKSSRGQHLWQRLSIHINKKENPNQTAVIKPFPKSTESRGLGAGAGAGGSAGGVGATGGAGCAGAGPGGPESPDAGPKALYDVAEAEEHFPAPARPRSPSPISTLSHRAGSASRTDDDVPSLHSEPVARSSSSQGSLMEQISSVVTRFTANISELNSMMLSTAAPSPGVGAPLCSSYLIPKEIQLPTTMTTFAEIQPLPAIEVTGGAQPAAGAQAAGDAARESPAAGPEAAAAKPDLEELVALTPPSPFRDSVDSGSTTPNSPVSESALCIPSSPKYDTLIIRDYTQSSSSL
# unit: nM | format: bare number

* Cc1cccc(NC(=O)c2nc(C)sc2Nc2cccc(S(C)(=O)=O)c2)n1 | 53
* Cc1cccc(NC(=O)c2ncsc2Nc2ccccc2)n1 | 26
* CC(=O)c1cccc(Nc2scnc2C(=O)Nc2cccc(C)n2)c1 | 18
* Cc1cccc(NC(=O)c2ncsc2Nc2c(C)noc2C)n1 | 99
* O=C(Nc1cccc(Cl)c1)c1ncsc1Nc1cccnc1 | 124

Result for "O=C(Nc1cccc(Cl)c1)c1ncsc1NC1CC1" , tested on human mGlu 5a receptor (Homo sapiens), Ki: 458
